- experimental target: Adrenergic receptor alpha-1 (Rattus norvegicus, UniProt P15823+P23944+P43140)
- assay protocol: Displacement of [3H]-prazosin from rat brain alpha1 adrenergic receptor after 50 mins
Please provide measured Ki for the entries that follow.
Provide the reading as a plain figure in nM.

**Q:** I am curious: what Ki value has been reported for O=C(CCOCCN1CCN(c2ccccc2-c2ccc(F)cc2)CC1)NCc1ccc(F)nc1 ?
**A:** 51.3

**Q:** // repeat for COc1ccc(CNC(=O)CCOCCN2CCN(c3ccccc3-c3ccc(F)cc3)CC2)cc1 and report
**A:** 156

**Q:** Follow-up entry: COc1ccc(-c2ccccc2N2CCN(CCCCCC(=O)NCc3ccc(F)nc3)CC2)cc1
**A:** 13.3

**Q:** Also need O=C(CCCCCN1CCN(c2cccnc2-c2ccncc2)CC1)NCc1ccc(F)nc1 , thanks.
**A:** 414

**Q:** Now this one: O=C(CCCCCN1CCN(c2ncccc2-c2ccncc2)CC1)NCc1ccc(F)nc1
**A:** 255

**Q:** For COc1ccc(CNC(=O)CCOCCN2CCN(c3ccccc3-c3ccccc3C)CC2)cc1 then?
**A:** 162

Measured values drawn from ChEMBL document CHEMBL3112417 for this set.
